- tested system: T1, exemplary TAT frataxin fusion molecule (HIV-1, UniProt Q16595 1-210)
- T1 construct: in the bridging assays biotinylated and sulfotagged forms were used; also called TAT-FXN fusion molecule; TAT FXN fusion molecule
- T1 sequence: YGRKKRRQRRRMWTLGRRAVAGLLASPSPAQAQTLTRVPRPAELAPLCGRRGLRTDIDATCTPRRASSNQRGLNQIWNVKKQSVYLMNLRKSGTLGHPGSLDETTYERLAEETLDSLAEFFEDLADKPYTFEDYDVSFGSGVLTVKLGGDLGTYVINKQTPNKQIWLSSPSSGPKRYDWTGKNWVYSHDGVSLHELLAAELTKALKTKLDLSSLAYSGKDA
- assay details: PK sandwich ELISA in human plasma, antibody as capture, HRP anti-frataxin mAb detection
value type: S/N at plasma conc. 0.800 ng/mL
No unit in the answer, please; the number alone is enough.

So for antibody 10-4 (antibody, V domains shown, Rabbit monoclonal) VH: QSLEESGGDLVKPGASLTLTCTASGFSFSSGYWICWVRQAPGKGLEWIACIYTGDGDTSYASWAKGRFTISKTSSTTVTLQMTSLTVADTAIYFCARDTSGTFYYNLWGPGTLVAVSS VL: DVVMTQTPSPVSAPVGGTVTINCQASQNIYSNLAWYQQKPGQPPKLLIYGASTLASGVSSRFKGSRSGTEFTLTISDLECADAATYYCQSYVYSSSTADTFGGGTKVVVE , the logged S/N at plasma conc. 0.800 ng/mL turned out to be 1.6
